measured_metric: melting point

- S=C(NCCc1c[nH]c2ccccc12)Nc1ccc(I)cc1: 162 to 165 °C
- S=C(NCCc1c[nH]c2ccccc12)Nc1ccccc1Cl: 170 to 172 °C
- Fc1ccc(NC(=S)NCCc2c[nH]c3ccccc23)cc1Cl: 162 to 164 °C
- Cc1ccc(NC(=S)NCCc2c[nH]c3ccccc23)cc1Cl: 161 to 163 °C
- CCCCc1ccc(NC(=S)NCCc2c[nH]c3ccccc23)c(C)c1: 172 to 174 °C
- S=C(NCCc1c[nH]c2ccccc12)Nc1ccc(Br)cc1: 156 to 158 °C
- Cc1ccc(Cl)cc1NC(=S)NCCc1c[nH]c2ccccc12: 163 to 165 °C
- Fc1ccccc1NC(=S)NCCc1c[nH]c2ccccc12: 167 to 168 °C
- COc1ccc(NC(=S)NCCc2c[nH]c3ccccc23)cc1: 146 to 148 °C
- S=C(NCCc1c[nH]c2ccccc12)Nc1cccc(Br)c1: 152 to 154 °C
- Fc1cccc(NC(=S)NCCc2c[nH]c3ccccc23)c1: 162 to 164 °C
- FC(F)(F)c1cccc(NC(=S)NCCc2c[nH]c3ccccc23)c1: 169 to 171 °C
- S=C(NCCc1c[nH]c2ccccc12)Nc1cccc(Cl)c1: 169 to 171 °C
- S=C(NCCc1c[nH]c2ccccc12)Nc1ccc(Cl)c(Cl)c1: 168 to 169 °C
- C=C(C)CNC(=S)NCCc1c[nH]c2ccccc12: 141 to 143 °C
- S=C(NCCc1c[nH]c2ccccc12)Nc1ccccc1Br: 150 to 152 °C
